# measurement.target: purified human HDAC6 (Homo sapiens, UniProt Q9UBN7)
# Construct: purchased BPS Bioscience 5006
# Sequence (Q9UBN7 1-1215): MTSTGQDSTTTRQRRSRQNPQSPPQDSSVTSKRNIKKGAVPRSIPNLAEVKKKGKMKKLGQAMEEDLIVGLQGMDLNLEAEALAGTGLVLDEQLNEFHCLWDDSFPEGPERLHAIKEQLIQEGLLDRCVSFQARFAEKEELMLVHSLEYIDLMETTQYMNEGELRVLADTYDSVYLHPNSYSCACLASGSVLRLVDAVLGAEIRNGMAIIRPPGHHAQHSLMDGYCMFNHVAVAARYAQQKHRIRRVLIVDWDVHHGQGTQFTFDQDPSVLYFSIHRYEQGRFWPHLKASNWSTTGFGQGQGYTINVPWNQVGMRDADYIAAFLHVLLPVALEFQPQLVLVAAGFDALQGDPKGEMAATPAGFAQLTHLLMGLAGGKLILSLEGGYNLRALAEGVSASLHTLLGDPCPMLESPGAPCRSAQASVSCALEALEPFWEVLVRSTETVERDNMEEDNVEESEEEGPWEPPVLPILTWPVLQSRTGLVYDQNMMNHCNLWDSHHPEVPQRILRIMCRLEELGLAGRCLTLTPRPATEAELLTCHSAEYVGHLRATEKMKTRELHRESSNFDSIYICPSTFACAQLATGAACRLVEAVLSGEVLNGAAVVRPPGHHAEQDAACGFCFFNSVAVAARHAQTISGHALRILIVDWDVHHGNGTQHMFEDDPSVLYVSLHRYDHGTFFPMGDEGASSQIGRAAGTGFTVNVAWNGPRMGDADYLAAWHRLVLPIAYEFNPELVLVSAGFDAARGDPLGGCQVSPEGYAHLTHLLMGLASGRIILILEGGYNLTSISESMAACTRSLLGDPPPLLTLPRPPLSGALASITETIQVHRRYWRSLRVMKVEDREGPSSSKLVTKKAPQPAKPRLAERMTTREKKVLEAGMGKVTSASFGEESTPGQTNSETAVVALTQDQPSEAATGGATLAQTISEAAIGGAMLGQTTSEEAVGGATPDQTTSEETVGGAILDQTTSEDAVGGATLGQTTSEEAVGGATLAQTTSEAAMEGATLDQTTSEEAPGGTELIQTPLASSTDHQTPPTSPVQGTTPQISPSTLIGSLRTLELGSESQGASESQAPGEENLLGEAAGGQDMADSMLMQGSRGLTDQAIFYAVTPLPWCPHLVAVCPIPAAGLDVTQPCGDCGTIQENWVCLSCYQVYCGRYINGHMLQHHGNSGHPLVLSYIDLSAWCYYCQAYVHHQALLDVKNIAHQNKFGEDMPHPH
# experiment.summary: HDAC6 Enzyme Assay
# Type: biochemical
# condition.description: HDAC6 inhibition at a compound concentration of 0.412 μM; read-out: Percent Inhibition at 0.412 μM
metric: inhibition at 0.412 µM (%)

CC(C)(C)c1ccc(C(=O)N2C3CCC2c2cc(C(=O)NO)ccc23)cc1 (stereo not drawn) :: 67

a = O=C(NO)c1ccc2c(c1)CC(NS(=O)(=O)c1ccccc1)CC2 (stereo not drawn)
b = O=C(NO)c1ccc2c(c1)CCC[C@@H]2NC(=O)c1cn2cc(Cl)ccc2n1
QUERY: Which has the higher inhibition at 0.412 µM, a or b ? Please respond with the label that marks your chosen entry.
RESULT: a

----------
# measurement.target: purified human HDAC6 (Homo sapiens, UniProt Q9UBN7)
# Construct: purchased BPS Bioscience 5006
# experiment.summary: HDAC6 Enzyme Assay
# Type: biochemical
# condition.description: HDAC6 inhibition at a compound concentration of 0.412 μM; read-out: Percent Inhibition at 0.412 μM
# Description: To measure the inhibition of HDAC6 activity, purified human HDAC6 (BPS Bioscience; Cat. No. 5006) is incubated with substrate Ac-Arg-Gly-Lys(Ac)-AMC peptide (Bachem Biosciences; Cat. No. I-1925) for 1 hour at 30° C. in the presence of test compounds or vehicle DMSO control. […] Concentration response curves are generated by calculating the fluorescence increase in test compound-treated samples relative to DMSO-treated controls, and enzyme inhibition (IC50) values are determined from those curves.
metric: inhibition at 0.412 µM (%)

COc1cccc(C2CCc3cc(C(=O)NO)ccc3C2)c1 (stereo not shown) :: 42

A = CCN(CC)CCNC(=O)c1cc(OC2CCc3cc(C(=O)NO)ccc3C2)ccn1 (stereo not shown)
B = CC(=O)N/C(=C\c1ccccc1)C(=O)NC1CCCc2cc(C(=O)NO)ccc21 (stereo not shown)
QUERY: Between A and B , which one has the lower reported inhibition at 0.412 µM value? Write the label of whichever entry you select.
RESULT: B
(B: 11%, A: 93%)

----------
# measurement.target: purified human HDAC6 (Homo sapiens, UniProt Q9UBN7)
# Construct: purchased BPS Bioscience 5006
# Sequence (Q9UBN7 1-1215): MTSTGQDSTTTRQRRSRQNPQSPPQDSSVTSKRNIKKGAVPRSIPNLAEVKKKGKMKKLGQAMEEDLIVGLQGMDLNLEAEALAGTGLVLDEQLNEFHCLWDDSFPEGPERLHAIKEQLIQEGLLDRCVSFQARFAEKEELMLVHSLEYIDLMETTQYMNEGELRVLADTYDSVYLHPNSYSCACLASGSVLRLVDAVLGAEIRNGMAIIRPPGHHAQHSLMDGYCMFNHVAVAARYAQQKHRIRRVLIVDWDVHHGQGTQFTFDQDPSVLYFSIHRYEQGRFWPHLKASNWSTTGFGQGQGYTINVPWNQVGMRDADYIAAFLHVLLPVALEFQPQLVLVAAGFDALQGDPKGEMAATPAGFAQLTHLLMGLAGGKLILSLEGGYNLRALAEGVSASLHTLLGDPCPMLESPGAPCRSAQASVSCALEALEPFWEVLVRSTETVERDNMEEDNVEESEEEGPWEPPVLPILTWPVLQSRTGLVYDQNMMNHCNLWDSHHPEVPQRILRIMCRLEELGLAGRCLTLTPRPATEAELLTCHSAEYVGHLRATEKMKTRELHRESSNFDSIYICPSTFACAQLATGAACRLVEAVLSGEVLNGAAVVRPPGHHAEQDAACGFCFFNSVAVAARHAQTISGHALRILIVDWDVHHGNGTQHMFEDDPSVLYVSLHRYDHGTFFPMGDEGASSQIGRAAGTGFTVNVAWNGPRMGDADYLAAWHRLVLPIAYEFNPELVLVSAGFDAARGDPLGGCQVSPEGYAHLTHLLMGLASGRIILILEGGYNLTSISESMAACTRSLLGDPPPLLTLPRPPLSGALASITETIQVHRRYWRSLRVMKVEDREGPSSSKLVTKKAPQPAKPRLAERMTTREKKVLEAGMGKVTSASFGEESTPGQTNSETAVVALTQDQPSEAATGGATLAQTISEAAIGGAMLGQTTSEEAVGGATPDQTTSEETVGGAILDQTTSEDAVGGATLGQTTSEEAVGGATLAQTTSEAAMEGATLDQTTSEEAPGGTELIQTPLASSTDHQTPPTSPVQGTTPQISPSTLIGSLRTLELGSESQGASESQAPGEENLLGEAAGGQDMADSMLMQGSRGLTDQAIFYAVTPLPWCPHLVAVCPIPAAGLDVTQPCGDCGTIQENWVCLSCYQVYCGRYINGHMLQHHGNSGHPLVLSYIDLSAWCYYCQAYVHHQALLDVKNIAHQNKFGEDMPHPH
# experiment.summary: HDAC6 Enzyme Assay
# Format: biochemical
# condition.description: HDAC6 inhibition at a compound concentration of 0.412 μM; read-out: Percent Inhibition at 0.412 μM
metric: inhibition at 0.412 µM (%)

O=C(NO)c1ccc2c(c1)C1CCC2N1C(=O)c1ccc(Cl)cc1 (stereo not drawn) :: 55
O=C(NO)c1ccc2c(c1)C1CCC2N1C(=O)c1ccccn1 (stereo not drawn) :: 28
COc1cccc(NC2CCc3ccc(C(=O)NO)cc3C2)c1 (stereo not drawn) :: 82
O=C(NO)c1ccc2c(c1)CC(c1ccc(Cl)cc1)CC2 (stereo not drawn) :: 82
O=C(NO)c1ccc2c(c1)C1CCC2N1C(=O)c1ccc(-c2ccccc2)cc1 (stereo not drawn) :: 70
O=C(NO)c1ccc2c(c1)C1CCC2N1C(=O)c1cc2ccccc2s1 (stereo not drawn) :: 23
O=C(NO)c1ccc2c(c1)CCC(c1ccncc1)C2 (stereo not drawn) :: 77
COc1cccc(C2CCc3ccc(C(=O)NO)cc3C2)c1 (stereo not drawn) :: 74
COc1ccc(C(=O)N2C3CCC2c2cc(C(=O)NO)ccc23)cc1 (stereo not drawn) :: 60

----------
# measurement.target: purified human HDAC6 (Homo sapiens, UniProt Q9UBN7)
# Construct: purchased BPS Bioscience 5006
# Sequence (Q9UBN7 1-1215): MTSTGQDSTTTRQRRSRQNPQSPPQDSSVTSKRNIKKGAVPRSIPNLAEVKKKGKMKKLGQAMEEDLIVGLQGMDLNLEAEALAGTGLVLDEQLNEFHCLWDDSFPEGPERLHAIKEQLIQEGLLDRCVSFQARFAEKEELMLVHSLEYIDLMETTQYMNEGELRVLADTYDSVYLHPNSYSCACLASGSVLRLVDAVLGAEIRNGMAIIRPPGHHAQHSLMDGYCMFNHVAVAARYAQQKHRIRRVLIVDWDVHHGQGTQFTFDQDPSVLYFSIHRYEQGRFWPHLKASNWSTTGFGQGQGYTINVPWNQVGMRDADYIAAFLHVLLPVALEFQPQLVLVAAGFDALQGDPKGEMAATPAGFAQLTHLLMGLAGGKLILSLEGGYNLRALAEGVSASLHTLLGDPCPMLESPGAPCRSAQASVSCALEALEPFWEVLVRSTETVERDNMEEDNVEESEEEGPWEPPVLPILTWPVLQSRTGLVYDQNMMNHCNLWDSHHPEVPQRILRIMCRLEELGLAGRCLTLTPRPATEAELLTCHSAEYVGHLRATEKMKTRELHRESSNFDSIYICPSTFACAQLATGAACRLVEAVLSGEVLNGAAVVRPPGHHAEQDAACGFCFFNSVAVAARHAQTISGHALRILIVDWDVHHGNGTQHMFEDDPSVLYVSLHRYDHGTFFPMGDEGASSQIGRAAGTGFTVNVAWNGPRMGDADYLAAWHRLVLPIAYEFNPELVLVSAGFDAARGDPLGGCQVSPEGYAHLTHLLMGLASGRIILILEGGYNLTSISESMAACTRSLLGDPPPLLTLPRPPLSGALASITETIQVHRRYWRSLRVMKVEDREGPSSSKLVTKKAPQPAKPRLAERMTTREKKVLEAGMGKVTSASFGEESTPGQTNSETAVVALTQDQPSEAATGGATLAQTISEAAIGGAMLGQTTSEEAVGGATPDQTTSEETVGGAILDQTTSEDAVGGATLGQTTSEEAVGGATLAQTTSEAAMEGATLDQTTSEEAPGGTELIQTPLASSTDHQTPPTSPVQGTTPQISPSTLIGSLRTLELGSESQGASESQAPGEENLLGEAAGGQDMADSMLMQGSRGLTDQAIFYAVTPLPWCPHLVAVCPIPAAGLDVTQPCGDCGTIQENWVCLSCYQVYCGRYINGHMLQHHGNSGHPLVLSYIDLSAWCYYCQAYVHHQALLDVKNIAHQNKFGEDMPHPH
# experiment.summary: HDAC6 Enzyme Assay
# Type: biochemical
# condition.description: HDAC6 inhibition at a compound concentration of 0.412 μM; read-out: Percent Inhibition at 0.412 μM
# Procedure: To measure the inhibition of HDAC6 activity, purified human HDAC6 (BPS Bioscience; Cat. No. 5006) is incubated with substrate Ac-Arg-Gly-Lys(Ac)-AMC peptide (Bachem Biosciences; Cat. No. I-1925) for 1 hour at 30° C. in the presence of test compounds or vehicle DMSO control. […] Concentration response curves are generated by calculating the fluorescence increase in test compound-treated samples relative to DMSO-treated controls, and enzyme inhibition (IC50) values are determined from those curves.
metric: inhibition at 0.412 µM (%)

CC1(C(=O)NC2CCc3ccc(C(=O)NO)cc3C2)CCNCC1 (stereo not drawn) [Compound I-114] :: 82
COc1ccccc1C1CCc2ccc(C(=O)NO)cc2C1 (stereo not drawn) [Compound I-116] :: 81
Cc1nc2ccccn2c1C(=O)NC1CCc2cc(C(=O)NO)ccc2C1 (stereo not drawn) [Compound I-55] :: 78
